All values here come from patent US12516022B2.

# Experiment summary: Time course of conversion to indirubin in FaSSIF at 37° C.
# Assay type: physicochemical
# Run conditions: FaSSIF 37° C. 24 h
Measurement name: indirubin (%)
Report only the number, with the unit % understood.

Known indirubin results, listed for orientation:
Compound	Measurement name	Val
O=C1/C(=C2/C(=O)N(C(=O)NC3CCOCC3)c3ccccc32)Nc2ccccc21 [drawing 263]	indirubin	6
CN(C)CCN(C)CN1C(=O)/C(=C2\Nc3ccccc3C2=O)c2ccccc21 [drawing 253]	indirubin	87
O=C1/C(=C2/C(=O)N(CN3CCOCC3)c3ccccc32)Nc2ccccc21 [drawing 261]	indirubin	24
O=C1/C(=C2/C(=O)N(CN3CCC(F)(F)CC3)c3ccccc32)Nc2ccccc21 [drawing 260]	indirubin	40

Field: next compound
q: Endpoint output: indirubin of O=C1/C(=C2/C(=O)N(CN3CCC3)c3ccccc32)Nc2ccccc21 [drawing 266] . Value?
a: 20

###

# Experiment summary: Time course of conversion to indirubin in FaSSIF at 37° C.
# Assay type: physicochemical
# Run conditions: FaSSIF 37° C. 24 h
Measurement name: indirubin methylene alcohol (%)
Report only the number, with the unit % understood.

Known indirubin methylene alcohol results, listed for orientation:
Compound	Units of measure	Val
O=C1/C(=C2/C(=O)N(CN3CCC(F)(F)CC3)c3ccccc32)Nc2ccccc21 [drawing 260]	%	0
CC(=O)N1CCN(CN2C(=O)/C(=C3\Nc4ccccc4C3=O)c3ccccc32)CC1 [drawing 258]	%	14
CN(C)CCN(C)CN1C(=O)/C(=C2\Nc3ccccc3C2=O)c2ccccc21 [drawing 253]	%	7
O=C1/C(=C2/C(=O)N(CN3CCC3)c3ccccc32)Nc2ccccc21 [drawing 266]	%	7

Field: next compound
q: Endpoint output: indirubin methylene alcohol of CN(C)C1CCN(CN2C(=O)/C(=C3\Nc4ccccc4C3=O)c3ccccc32)CC1 [drawing 256] . Value?
a: 6

###

# Experiment summary: Time course of conversion to indirubin in FaSSGF at 37° C.
# Assay type: physicochemical
# Run conditions: FaSSGF (Example 4; table title prints FaSSIF) 37° C., 24 h
# indirubin annotations
Report only the number, with the unit % understood.

q: Endpoint output: indirubin of O=C1/C(=C2/C(=O)N(CN3CCCC3)c3ccccc32)Nc2ccccc21 [drawing 270] . Value?
a: 99

q: Endpoint output: indirubin of O=C1/C(=C2/C(=O)N(CN3CCCCC3)c3ccccc32)Nc2ccccc21 [drawing 269] . Value?
a: 99

q: Endpoint output: indirubin of O=C1/C(=C2/C(=O)N(C(=O)NC3CCOCC3)c3ccccc32)Nc2ccccc21 [drawing 278] . Value?
a: 10

q: Endpoint output: indirubin of CCN(CC)CN1C(=O)/C(=C2\Nc3ccccc3C2=O)c2ccccc21 [drawing 267] . Value?
a: 100

q: Endpoint output: indirubin of CN1CCN(CN2C(=O)/C(=C3\Nc4ccccc4C3=O)c3ccccc32)CC1 [drawing 273] . Value?
a: 41

q: Endpoint output: indirubin of O=C1/C(=C2/C(=O)N(CN3CCOCC3)c3ccccc32)Nc2ccccc21 [drawing 276] . Value?
a: 29

q: Endpoint output: indirubin of CNCCNC(=O)N1C(=O)/C(=C2\Nc3ccccc3C2=O)c2ccccc21.Cl [drawing 279] . Value?
a: 0

q: Endpoint output: indirubin of CN(C)CCN(C)CN1C(=O)/C(=C2\Nc3ccccc3C2=O)c2ccccc21 [drawing 268] . Value?
a: 95

q: Endpoint output: indirubin of O=C1/C(=C2/C(=O)N(COS(=O)(=O)O)c3ccccc32)Nc2ccccc21 [drawing 277] . Value?
a: 0

q: Endpoint output: indirubin of CC(=O)N1CCN(CN2C(=O)/C(=C3\Nc4ccccc4C3=O)c3ccccc32)CC1 [drawing 281] . Value?
a: 0

q: Endpoint output: indirubin of O=C1/C(=C2/C(=O)N(CO)c3ccccc32)Nc2ccccc21 [drawing 274] . Value?
a: 22

q: Endpoint output: indirubin of CN(C)CCN(CCN(C)C)CN1C(=O)/C(=C2\Nc3ccccc3C2=O)c2ccccc21 [drawing 271] . Value?
a: 90

q: Endpoint output: indirubin of CN(C)C1CCN(CN2C(=O)/C(=C3\Nc4ccccc4C3=O)c3ccccc32)CC1 [drawing 272] . Value?
a: 61

q: Endpoint output: indirubin of O=C1/C(=C2/C(=O)N(CN3CCC3)c3ccccc32)Nc2ccccc21 [drawing 275] . Value?
a: 23

###

# starting material (prodrug compound) annotations
# Experiment summary: Time course of conversion to indirubin in FaSSGF at 37° C.
# Type: physicochemical
# Run conditions: FaSSGF (Example 4; table title prints FaSSIF) 37° C., 30 min

Molecule	Val
O=C1/C(=C2/C(=O)N(CN3CCCCC3)c3ccccc32)Nc2ccccc21 [drawing 269]	1%
O=C1/C(=C2/C(=O)N(CN3CCCC3)c3ccccc32)Nc2ccccc21 [drawing 270]	0%
CCN(CC)CN1C(=O)/C(=C2\Nc3ccccc3C2=O)c2ccccc21 [drawing 267]	0%
CN(C)CCN(C)CN1C(=O)/C(=C2\Nc3ccccc3C2=O)c2ccccc21 [drawing 268]	0%
O=C1/C(=C2/C(=O)N(C(=O)NC3CCOCC3)c3ccccc32)Nc2ccccc21 [drawing 278]	61%
CC(=O)N1CCN(CN2C(=O)/C(=C3\Nc4ccccc4C3=O)c3ccccc32)CC1 [drawing 281]	97%

q: Endpoint output: starting material (prodrug compound) of O=C1/C(=C2/C(=O)N(CN3CCC3)c3ccccc32)Nc2ccccc21 [drawing 275] . Value?
a: 70%

q: Endpoint output: starting material (prodrug compound) of O=C1/C(=C2/C(=O)N(CO)c3ccccc32)Nc2ccccc21 [drawing 274] . Value?
a: 0%

q: Endpoint output: starting material (prodrug compound) of CN1CCN(CN2C(=O)/C(=C3\Nc4ccccc4C3=O)c3ccccc32)CC1 [drawing 273] . Value?
a: 76%

###

# Experiment summary: Time course of conversion to indirubin in FaSSGF at 37° C.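 Also: compound incubated in fasted state simulated gastric fluid, species in samples quantified by UPLC-MS with UV (210–400 nm) and ELS detection.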
# Type: physicochemical
# Run conditions: FaSSGF (Example 4; table title prints FaSSIF) 37° C., 1 h
# starting material (prodrug compound) annotations
Report only the number, with the unit % understood.

Known starting material (prodrug compound) results, listed for orientation:
Compound	Val
O=C1/C(=C2/C(=O)N(CN3CCC3)c3ccccc32)Nc2ccccc21 [drawing 275]	71
CN(C)CCN(C)CN1C(=O)/C(=C2\Nc3ccccc3C2=O)c2ccccc21 [drawing 268]	0
CC(=O)N1CCN(CN2C(=O)/C(=C3\Nc4ccccc4C3=O)c3ccccc32)CC1 [drawing 281]	87

q: Endpoint output: starting material (prodrug compound) of CN(C)C1CCN(CN2C(=O)/C(=C3\Nc4ccccc4C3=O)c3ccccc32)CC1 [drawing 272] . Value?
a: 46

q: Endpoint output: starting material (prodrug compound) of CNCCNC(=O)N1C(=O)/C(=C2\Nc3ccccc3C2=O)c2ccccc21.Cl [drawing 279] . Value?
a: 100

###

# Experiment summary: Time course of conversion to indirubin in FaSSIF at 37° C.
# Assay type: physicochemical
# Run conditions: FaSSIF 37° C., 1 h
Measurement name: indirubin methylene alcohol (%)
Report only the number, with the unit % understood.

Known indirubin methylene alcohol results, listed for orientation:
Molecule	Val
CC(=O)N1CCN(CN2C(=O)/C(=C3\Nc4ccccc4C3=O)c3ccccc32)CC1 [drawing 258]	12
O=C1/C(=C2/C(=O)N(CN3CCC(F)(F)CC3)c3ccccc32)Nc2ccccc21 [drawing 260]	0
O=C1/C(=C2/C(=O)N(COS(=O)(=O)O)c3ccccc32)Nc2ccccc21 [drawing 262]	81
CN(C)CCN(C)CN1C(=O)/C(=C2\Nc3ccccc3C2=O)c2ccccc21 [drawing 253]	6

q: Endpoint output: indirubin methylene alcohol of CCN(CC)CN1C(=O)/C(=C2\Nc3ccccc3C2=O)c2ccccc21 [drawing 252] . Value?
a: 0

###

# Experiment summary: Time course of conversion to indirubin in FaSSIF at 37° C.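 Also: test compound, about 1-3 mg in 5 mL FaSSIF, sampled and analysed by UPLC-MS with PDA UV (210-400 nm), QDa mass and evaporative light scattering detection.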
# Assay type: physicochemical
# Run conditions: FaSSIF 37° C., 30 min
Measurement name: indirubin methylene alcohol (%)
Report only the number, with the unit % understood.

Known indirubin methylene alcohol results, listed for orientation:
Compound	Val
O=C1/C(=C2/C(=O)N(CN3CCCC3)c3ccccc32)Nc2ccccc21 [drawing 255]	0
CC(=O)N1CCN(CN2C(=O)/C(=C3\Nc4ccccc4C3=O)c3ccccc32)CC1 [drawing 258]	14
CNCCNC(=O)N1C(=O)/C(=C2\Nc3ccccc3C2=O)c2ccccc21.Cl [drawing 264]	0
CN(C)C1CCN(CN2C(=O)/C(=C3\Nc4ccccc4C3=O)c3ccccc32)CC1 [drawing 256]	5
O=C1/C(=C2/C(=O)N(CN3CCOCC3)c3ccccc32)Nc2ccccc21 [drawing 261]	3

q: Endpoint output: indirubin methylene alcohol of CN(C)CCN(CCN(C)C)CN1C(=O)/C(=C2\Nc3ccccc3C2=O)c2ccccc21 [drawing 257] . Value?
a: 13
